Assign pKi to each entry below.
target or system: GABA-A receptor; alpha-2/beta-3/gamma-2 (Homo sapiens, UniProt P18507+P28472+P47869)
test method notes: Binding affinity measured using LtK- cell membranes expressing GABA alpha-2-beta-3-gamma-2 receptor
One number for each entry, as −log10 of the molar value.

Data request: What is its pKi for GABA-A receptor; alpha-2/beta-3/gamma-2 (Homo sapiens, UniProt P18507+P28472+P47869)? Entry: `Cc1nnc2ccc(-c3cccc(C(F)(F)F)c3)nn12`
Data returned: 5.71

Data request: Could you do the same for `CCOC(=O)c1[nH]cc2nc3ccc(OC)cc3c-2c1COC` , please?
Data returned: 8.92

Data request: Could you do the same for `CCOC(=O)c1[nH]cc2nc3cc(OC)c(OC)cc3c-2c1CC` , please?
Data returned: 7.73

Data request: Could you do the same for `CCc1c(C(=O)OC)ncc2[nH]c3cc(OC)c(OC)cc3c12` , please?
Data returned: 8.08

Data request: Could you do the same for CCC(C)Oc1cc2c3ccccc3nc-2c[nH]1 (stereo not given) , please?
Data returned: 6.09

We next turn to a different compound, shown below.
Data request: What is its pKi for GABA-A receptor; alpha-2/beta-3/gamma-2 (Homo sapiens, UniProt P18507+P28472+P47869)? Entry: `CCCOc1ccc2[nH]c3cnc(OCCC)c(COC)c3c2c1`
Data returned: 6.67

* * *

target or system: GABA-A receptor; alpha-2/beta-3/gamma-2 (Homo sapiens, UniProt P18507+P28472+P47869)
test method notes: Binding affinity measured using LtK- cell membranes expressing GABA alpha-2-beta-3-gamma-2 receptor
Assign pKi to each entry below.
Give bare numbers, as −log10 of the molar value.

Data request: Consider the compound `CCOC(=O)c1ncc2[nH]c3ccc(OCc4ccccc4)cc3c2c1COC` and give its measured pKi.
Data returned: 8.38

More entries:
Data request: Consider the compound `CC(C)(C)OC(=O)c1cc2c3ccccc3nc-2c[nH]1` and give its measured pKi.
Data returned: 7.82

* * *

target or system: GABA-A receptor; anion channel
test method notes: Displacement of [3H]flunitrazepam from GABA-A Benzodiazepine receptor of rat brain cortical membranes
parameter measured: IC50

Examples from the recorded data:
Data request: Consider the compound `CCOC(=O)c1ncc2c(c1CC)c1cc(OCc3cccc4ccccc34)ccc1n2C` and give its measured IC50.
Data returned: > 1000 nM

Data request: Could you do the same for `CCOC(=O)c1ncc2c(c1CC)c1cc(OCc3ccccc3)ccc1n2C` , please?
Data returned: > 5000 nM

More entries:
Data request: Consider the compound `CCCCCCCCOc1ccc2c(c1)c1c(COC)c(C(=O)OCC)ncc1n2C` and give its measured IC50.
Data returned: > 1000 nM

* * *

target or system: GABA-A receptor; alpha-6/beta-3/gamma-2 (Homo sapiens, UniProt P18507+P28472+Q16445)
test method notes: Binding affinity measured using LtK- cell membranes expressing Gamma-aminobutyric acid A receptor alpha-6-beta-3-gamma-2
Assign Ki to each entry below.
Give bare numbers, in nM.

Data request: What is its Ki for GABA-A receptor; alpha-6/beta-3/gamma-2 (Homo sapiens, UniProt P18507+P28472+Q16445)? Entry: `CCCOc1ccc2[nH]c3cnc(C(=O)OCC)c(COC)c3c2c1`
Data returned: 1340

We next turn to a different compound, shown below.
Data request: What is its Ki for GABA-A receptor; alpha-6/beta-3/gamma-2 (Homo sapiens, UniProt P18507+P28472+Q16445)? Entry: `CCc1c(C(=O)OC)ncc2[nH]c3cc(OC)c(OC)cc3c12`
Data returned: 134

* * *

target or system: GABA-A receptor; alpha-1/beta-3/gamma-2 (Homo sapiens, UniProt P14867+P18507+P28472)
Sequence (P14867 whole entry): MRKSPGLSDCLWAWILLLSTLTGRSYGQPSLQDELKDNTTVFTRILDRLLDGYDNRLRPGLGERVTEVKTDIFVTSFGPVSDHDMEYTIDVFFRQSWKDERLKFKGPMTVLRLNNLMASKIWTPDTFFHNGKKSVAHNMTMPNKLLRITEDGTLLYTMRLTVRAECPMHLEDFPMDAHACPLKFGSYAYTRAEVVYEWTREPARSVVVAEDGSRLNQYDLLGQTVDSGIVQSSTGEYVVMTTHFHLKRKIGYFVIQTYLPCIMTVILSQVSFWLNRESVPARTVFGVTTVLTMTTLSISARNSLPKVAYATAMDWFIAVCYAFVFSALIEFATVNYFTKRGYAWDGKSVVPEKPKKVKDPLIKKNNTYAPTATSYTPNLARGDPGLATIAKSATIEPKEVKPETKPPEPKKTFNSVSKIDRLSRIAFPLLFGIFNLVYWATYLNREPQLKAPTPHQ
Sequence (P18507 whole entry): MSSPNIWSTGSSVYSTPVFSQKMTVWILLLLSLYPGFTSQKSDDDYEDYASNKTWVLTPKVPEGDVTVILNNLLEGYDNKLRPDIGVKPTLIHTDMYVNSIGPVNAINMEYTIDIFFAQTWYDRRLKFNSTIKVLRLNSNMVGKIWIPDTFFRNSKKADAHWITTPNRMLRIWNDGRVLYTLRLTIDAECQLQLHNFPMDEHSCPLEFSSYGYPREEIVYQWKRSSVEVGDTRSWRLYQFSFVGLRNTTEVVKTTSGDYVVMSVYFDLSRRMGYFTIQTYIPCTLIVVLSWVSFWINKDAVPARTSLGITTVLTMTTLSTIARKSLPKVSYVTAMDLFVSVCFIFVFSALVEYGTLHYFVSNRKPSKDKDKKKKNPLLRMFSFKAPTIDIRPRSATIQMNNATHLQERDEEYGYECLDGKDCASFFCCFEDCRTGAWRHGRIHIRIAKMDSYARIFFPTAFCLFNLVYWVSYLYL
Sequence (P28472 whole entry): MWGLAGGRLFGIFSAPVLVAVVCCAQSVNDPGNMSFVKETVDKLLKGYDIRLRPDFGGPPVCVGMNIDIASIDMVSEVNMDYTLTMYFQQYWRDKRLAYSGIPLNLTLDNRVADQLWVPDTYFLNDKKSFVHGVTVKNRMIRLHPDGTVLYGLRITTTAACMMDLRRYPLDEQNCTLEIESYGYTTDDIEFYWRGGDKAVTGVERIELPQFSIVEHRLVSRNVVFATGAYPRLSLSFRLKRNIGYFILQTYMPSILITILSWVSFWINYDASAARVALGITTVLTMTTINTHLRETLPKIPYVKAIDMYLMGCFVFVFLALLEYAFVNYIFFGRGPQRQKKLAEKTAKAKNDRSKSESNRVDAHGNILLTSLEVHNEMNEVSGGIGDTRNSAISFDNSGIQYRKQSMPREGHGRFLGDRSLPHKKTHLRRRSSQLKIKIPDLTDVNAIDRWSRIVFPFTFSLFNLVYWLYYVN
test method notes: Binding affinity measured using LtK- cell membranes expressing GABA alpha-1-beta-3-gamma-2 receptor
parameter measured: Ki (nM)
Numbers only, in nM.

Examples from the recorded data:
Data request: Consider the compound `CC(C)Oc1cc2c(cn1)[nH]c1ccccc12` and give its measured Ki.
Data returned: 283

Data request: Could you do the same for `CC(C)CCOc1cc2c3ccccc3nc-2c[nH]1` , please?
Data returned: 350

Data request: Could you do the same for COCc1c(C(=O)OC(C)C)ncc2[nH]c3ccc(OCc4ccccc4)cc3c12 [ABECARNIL] , please?
Data returned: 12.4

Data request: Could you do the same for `CCOc1cc2c(cn1)[nH]c1ccccc12` , please?
Data returned: 6.43

Data request: Could you do the same for `CCOC(=O)c1[nH]cc2nc3ccc(OCc4cccc5ccccc45)cc3c-2c1CC` , please?
Data returned: 183

Data request: Could you do the same for `CCc1c(C(=O)OC)ncc2[nH]c3cc(OC)c(OC)cc3c12` , please?
Data returned: 5.7

Data request: Could you do the same for `CCOC(=O)c1ncc2[nH]c3ccccc3c2c1COC` , please?
Data returned: 0.6

Data request: Could you do the same for `COCc1c(N=C=S)[nH]cc2nc3ccc(OCc4ccccc4)cc3c1-2` , please?
Data returned: 25

Look at each compound and report its Ki.
1. CCCOc1ccc2[nH]c3cnc(N)c(COC)c3c2c1
2. Cc1nnc2ccc(-c3cccc(C(F)(F)F)c3)nn12 [CI-218872]
3. CCOC(=O)c1[nH]cc2nc3ccc(OC)cc3c-2c1COC
4. CCCOc1ccc2[nH]c3cnc(C(=O)OCC)c(COC)c3c2c1
5. CCCOc1cc2c(cn1)[nH]c1ccccc12
6. CCOC(=O)c1cc2c(cn1)[nH]c1ccccc12

Data returned:
[45, 57, 0.14, 0.49, 5.3, 1.2]

* * *

Assign Ki to each entry below.
target or system: GABA-A receptor; alpha-2/beta-3/gamma-2 (Homo sapiens, UniProt P18507+P28472+P47869)
Sequence (P18507 whole entry): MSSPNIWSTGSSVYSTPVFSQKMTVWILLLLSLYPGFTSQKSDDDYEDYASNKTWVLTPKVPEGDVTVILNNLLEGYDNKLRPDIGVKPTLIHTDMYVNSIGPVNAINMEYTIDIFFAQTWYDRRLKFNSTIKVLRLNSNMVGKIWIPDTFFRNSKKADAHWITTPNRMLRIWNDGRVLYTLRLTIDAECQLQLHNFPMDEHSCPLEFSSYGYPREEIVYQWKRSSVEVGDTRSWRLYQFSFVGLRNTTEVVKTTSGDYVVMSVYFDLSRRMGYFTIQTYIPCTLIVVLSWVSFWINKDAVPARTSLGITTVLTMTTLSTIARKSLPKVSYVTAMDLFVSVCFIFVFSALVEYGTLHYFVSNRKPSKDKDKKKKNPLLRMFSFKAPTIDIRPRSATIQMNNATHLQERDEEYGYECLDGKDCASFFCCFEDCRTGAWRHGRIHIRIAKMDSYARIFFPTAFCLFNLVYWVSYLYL
Sequence (P28472 whole entry): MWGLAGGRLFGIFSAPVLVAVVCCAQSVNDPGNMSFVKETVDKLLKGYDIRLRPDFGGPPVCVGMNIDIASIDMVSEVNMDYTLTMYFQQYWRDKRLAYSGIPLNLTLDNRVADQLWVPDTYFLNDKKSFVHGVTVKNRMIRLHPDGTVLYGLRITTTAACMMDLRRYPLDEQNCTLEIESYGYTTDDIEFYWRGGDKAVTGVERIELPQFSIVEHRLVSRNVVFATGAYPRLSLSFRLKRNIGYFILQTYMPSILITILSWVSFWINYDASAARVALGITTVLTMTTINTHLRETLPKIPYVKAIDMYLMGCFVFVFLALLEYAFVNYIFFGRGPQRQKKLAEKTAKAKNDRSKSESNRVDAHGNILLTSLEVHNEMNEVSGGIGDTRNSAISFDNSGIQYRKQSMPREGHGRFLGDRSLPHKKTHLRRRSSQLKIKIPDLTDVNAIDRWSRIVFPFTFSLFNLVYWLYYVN
Sequence (P47869 whole entry): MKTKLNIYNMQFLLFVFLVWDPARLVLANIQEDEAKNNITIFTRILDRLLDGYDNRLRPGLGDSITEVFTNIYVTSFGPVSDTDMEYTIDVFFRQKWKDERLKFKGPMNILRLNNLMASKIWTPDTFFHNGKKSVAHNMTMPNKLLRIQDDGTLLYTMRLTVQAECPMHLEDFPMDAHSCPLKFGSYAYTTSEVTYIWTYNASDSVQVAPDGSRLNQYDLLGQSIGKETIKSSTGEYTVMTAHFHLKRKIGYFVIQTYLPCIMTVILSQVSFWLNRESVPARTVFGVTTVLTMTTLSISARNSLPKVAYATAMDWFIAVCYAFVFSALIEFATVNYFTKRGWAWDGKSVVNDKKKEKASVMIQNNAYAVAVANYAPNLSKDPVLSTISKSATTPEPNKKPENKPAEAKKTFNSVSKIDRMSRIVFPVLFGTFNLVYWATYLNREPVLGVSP
test method notes: Binding affinity measured using LtK- cell membranes expressing GABA alpha-2-beta-3-gamma-2 receptor

Data request: What is its Ki for GABA-A receptor; alpha-2/beta-3/gamma-2 (Homo sapiens, UniProt P18507+P28472+P47869)? Entry: `CC(C)Oc1cc2c(cn1)[nH]c1ccccc12`
Data returned: > 3 µM

Data request: Could you do the same for `CCCCCCCCOc1ccc2[nH]c3cnc(C(=O)OCC)c(COC)c3c2c1` , please?
Data returned: > 3 µM

Data request: Could you do the same for `CCCCCCCCOc1ccc2c(c1)c1c(COC)c(C(=O)OCC)ncc1n2C` , please?
Data returned: > 3 µM

We next turn to a different compound, shown below.
Data request: What is its Ki for GABA-A receptor; alpha-2/beta-3/gamma-2 (Homo sapiens, UniProt P18507+P28472+P47869)? Entry: `CCc1c(OC)[nH]cc2nc3cc(OC)c(OC)cc3c1-2`
Data returned: > 0.3 µM

// data source = ChEMBL document CHEMBL1131013
